Hey, just so you know, these numbers are from patent US20120164142A1.

Catalogue of EC50 Ratio versus CNP22 readings, one per entry.
Biological target: human natriuretic peptide receptor B (NPR-B) (human) (UniProt P20594)
Sequence (P20594 23-1047): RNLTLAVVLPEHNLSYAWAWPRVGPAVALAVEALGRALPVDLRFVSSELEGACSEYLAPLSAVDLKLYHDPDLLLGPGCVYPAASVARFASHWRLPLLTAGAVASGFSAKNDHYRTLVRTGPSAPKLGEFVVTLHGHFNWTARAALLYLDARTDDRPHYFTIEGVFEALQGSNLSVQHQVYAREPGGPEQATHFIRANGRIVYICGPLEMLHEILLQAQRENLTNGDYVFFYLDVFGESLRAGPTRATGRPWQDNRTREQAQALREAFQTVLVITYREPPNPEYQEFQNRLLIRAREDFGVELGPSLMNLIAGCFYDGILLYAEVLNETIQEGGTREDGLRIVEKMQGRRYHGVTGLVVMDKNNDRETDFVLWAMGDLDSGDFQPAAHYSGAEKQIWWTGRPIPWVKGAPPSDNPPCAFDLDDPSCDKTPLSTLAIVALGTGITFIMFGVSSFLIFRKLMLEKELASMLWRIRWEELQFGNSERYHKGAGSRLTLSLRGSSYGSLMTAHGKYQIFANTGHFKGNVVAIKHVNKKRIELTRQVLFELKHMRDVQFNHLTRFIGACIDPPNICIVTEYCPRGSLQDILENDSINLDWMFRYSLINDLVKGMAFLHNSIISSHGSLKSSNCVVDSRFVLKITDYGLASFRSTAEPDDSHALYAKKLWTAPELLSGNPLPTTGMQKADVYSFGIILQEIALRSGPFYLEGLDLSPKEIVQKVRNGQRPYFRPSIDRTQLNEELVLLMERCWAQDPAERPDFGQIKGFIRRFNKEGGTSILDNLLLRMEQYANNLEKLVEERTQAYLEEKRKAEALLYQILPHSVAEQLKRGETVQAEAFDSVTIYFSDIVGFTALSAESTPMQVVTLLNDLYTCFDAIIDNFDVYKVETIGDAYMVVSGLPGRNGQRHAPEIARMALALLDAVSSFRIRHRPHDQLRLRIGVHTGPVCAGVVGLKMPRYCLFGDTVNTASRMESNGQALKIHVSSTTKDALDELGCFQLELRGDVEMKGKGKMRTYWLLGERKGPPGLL
Assay: cell-based or functional assay

Some solved entries appear below for comparison.
binder	EC50 Ratio versus CNP22
EEEEEESGGGGSGGGKGANKKGLSKGCFGLKLDRIGSMSGLGC [C4(E6) [BC4]]	20.5
EEEEEESGGGGSGGGKGANQQGLSKGCFGLKLDRIGSMSGLGC [C9(E6) [BC9]]	79.3
EEEEEESGGGGSGGGQGANQKGLSKGCFGLKLDRIGSMSGLGC [C10(E6) [BC10]]	168
EEEEEESGGGGSGGGKGANKQGLSKGCFGLKLDRIGSMSGLGC [C6(E6) [BC6]]	45.7
EEEEEESGGGGSGGGQGANKKGLSKGCFGLKLDRIGSMSGLGC [C8(E6) [BC8]]	48.9

Attention now turns to another entry.
Task item: Please list EC50 Ratio versus CNP22 recorded for the binder EEEEEESGGGGSGGGGSGGGGGLSKGCFGLKLDRIGSMSGLGC [C1(E6) [BC1]]
Reply: 118
